System: human naso-pharyngeal cancer cell line KB
Assay: Test (b): inhibition of the EGF-stimulated growth of the human naso-pharyngeal cancer cell line KB
Format: cell-based
Settings: 72 h, KB cells, EGF (10 ng/ml), 3 days, MTT
Procedure: (b) An in vitro assay which determines the ability of a test compound to inhibit the EGF-stimulated growth of the human naso-pharyngeal cancer cell line KB. KB cells were seeded into wells at a density of 1×10^4 -1.5×10^4 cells per well and grown for 24 hours in DHEM supplemented with 5% FCS (charcoal-stripped). Cell growth was determined after incubation for 3 days by the extent of metabolism of MTT tetrazolium dye to furnish a bluish colour. […] An IC50 value could then be calculated.
Values of IC50 strictly less than 900 nM map to Y, and values of at least 900 nM map to N.

For orientation, consider the following solved cases.
Challenge: In the record for COc1cc2ncnc(Nc3ccc(C(=O)c4ccccc4)c(Cl)c3)c2cc1OC.Cl [hydrochloride salt] , is IC50 less than 900 nM?
Response given: Y

Challenge: In the record for COc1cc2ncnc(Nc3ccc(OCc4ccccn4)c(C)c3)c2cc1OCCCN1CCOCC1 , is IC50 less than 900 nM?
Response given: N

Turning now to a further record.
Challenge: In the record for COc1cc2ncnc(Nc3ccc(Sc4ccccc4)c(Cl)c3)c2cc1OC , is IC50 less than 900 nM?
Response given: N

====

Biological target: EGF receptor tyrosine kinase (Homo sapiens, UniProt P00533)
Construct: Receptor tyrosine kinase was obtained in partially purified form from A-431 cells; endogenous in cells
Sequence (P00533 25-1210): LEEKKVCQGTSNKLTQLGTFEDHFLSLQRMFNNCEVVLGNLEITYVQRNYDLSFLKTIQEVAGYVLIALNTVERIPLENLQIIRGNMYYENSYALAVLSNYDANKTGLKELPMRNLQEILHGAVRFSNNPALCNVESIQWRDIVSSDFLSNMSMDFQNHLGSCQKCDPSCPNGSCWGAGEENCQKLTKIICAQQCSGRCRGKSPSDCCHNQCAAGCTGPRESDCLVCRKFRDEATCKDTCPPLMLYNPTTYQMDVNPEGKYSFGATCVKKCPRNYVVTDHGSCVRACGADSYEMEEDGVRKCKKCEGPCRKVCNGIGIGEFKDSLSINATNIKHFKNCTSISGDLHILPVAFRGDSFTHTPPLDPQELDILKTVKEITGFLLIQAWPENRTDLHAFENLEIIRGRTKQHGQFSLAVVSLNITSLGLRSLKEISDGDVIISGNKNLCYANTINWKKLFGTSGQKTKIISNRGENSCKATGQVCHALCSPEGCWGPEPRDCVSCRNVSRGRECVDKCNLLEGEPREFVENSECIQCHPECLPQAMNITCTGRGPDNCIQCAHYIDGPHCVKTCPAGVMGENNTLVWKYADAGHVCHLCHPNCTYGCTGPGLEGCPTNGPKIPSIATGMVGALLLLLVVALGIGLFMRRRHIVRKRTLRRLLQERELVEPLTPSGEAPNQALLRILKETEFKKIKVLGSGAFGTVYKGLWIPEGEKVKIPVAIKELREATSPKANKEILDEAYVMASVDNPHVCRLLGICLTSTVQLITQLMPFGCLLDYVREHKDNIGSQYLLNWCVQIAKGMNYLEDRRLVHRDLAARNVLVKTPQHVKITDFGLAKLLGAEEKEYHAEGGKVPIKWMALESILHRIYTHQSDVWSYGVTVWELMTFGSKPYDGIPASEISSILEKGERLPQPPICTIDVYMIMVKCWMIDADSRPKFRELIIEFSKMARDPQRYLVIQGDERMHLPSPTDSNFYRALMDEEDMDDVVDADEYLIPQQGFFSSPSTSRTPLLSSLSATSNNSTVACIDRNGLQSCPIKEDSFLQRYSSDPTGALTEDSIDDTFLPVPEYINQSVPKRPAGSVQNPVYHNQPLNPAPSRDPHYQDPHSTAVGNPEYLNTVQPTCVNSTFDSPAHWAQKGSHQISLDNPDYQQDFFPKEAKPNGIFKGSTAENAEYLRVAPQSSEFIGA
Test: Test (a): in vitro inhibition of the enzyme EGF receptor tyrosine kinase (partially purified from A-431 cells)
Details: EGF receptor tyrosine kinase from A-431 cells
pIC50: −log10 of the molar value.
Decision: pIC50 compared against 7; not below it gives 1 (yes), below it gives 0 (no).

For orientation, consider the following solved cases.
Challenge: Identify whether the reported pIC50 of the following compound is 7 or greater: COc1cc2ncnc(Nc3ccc(OCc4ccccn4)c(C)c3)c2cc1OC.Cl.Cl [dihydrochloride salt]
Response given: 1 (yes)

Challenge: Identify whether the reported pIC50 of the following compound is 7 or greater: COc1cc2ncnc(Nc3ccc(Sc4nccn4C)c(Cl)c3)c2cc1OC
Response given: 1 (yes)

Challenge: Identify whether the reported pIC50 of the following compound is 7 or greater: COc1cc2ncnc(Nc3ccc(C(=O)c4ccccc4)c(Cl)c3)c2cc1OC.Cl [hydrochloride salt]
Response given: 1 (yes)

---
Challenge: Identify whether the reported pIC50 of the following compound is 7 or greater: COc1cc2ncnc(Nc3ccc(OCc4ccccn4)c(C)c3)c2cc1OCCCN1CCOCC1
Response given: 0 (no)

====

Listed here: items and their measured ED50.
System: liver hepatocyte growth caused by the administration of the growth factor TGFα
Assay: Test (c): in vivo inhibition of TGFα-stimulated liver hepatocyte growth in male rats (BrdU uptake)
Settings: Rattus norvegicus, usually oral, TGFα 400 μg/kg subcutaneously, approximate ED50, BrdU uptake
Just the number in mg/kg, nothing appended.

Challenge: Please look at this compound and report its ED50: COc1cc2ncnc(Nc3ccc(Sc4ccccc4)c(Cl)c3)c2cc1OC
Response given: 12.5

Now consider a different compound.
Challenge: Please look at this compound and report its ED50: COc1cc2ncnc(Nc3ccc(OCc4ccccn4)c(C)c3)c2cc1OC.Cl.Cl
Response given: 5

====

Tested on: human naso-pharyngeal cancer cell line KB
Experiment: Test (b): inhibition of the EGF-stimulated growth of the human naso-pharyngeal cancer cell line KB
Format: cell-based
Conditions: 72 h, KB cells, EGF (10 ng/ml), 3 days, MTT
Listed here: items and their measured IC50.
Just the number in nM, nothing appended.

Worked cases, IC50 given:
Challenge: Please look at this compound and report its IC50: COc1cc2ncnc(Nc3ccc(OCc4ccccn4)c(C)c3)c2cc1OC.Cl.Cl [dihydrochloride salt]
Response given: 930

Challenge: Please look at this compound and report its IC50: COc1cc2ncnc(Nc3ccc(Cc4ccccc4)c(Cl)c3)c2cc1OC.I [hydroiodide salt]
Response given: 1200

Challenge: Please look at this compound and report its IC50: COc1cc2ncnc(Nc3ccc(OCc4ccccn4)c(C)c3)c2cc1OCCCN(C)C
Response given: 430

Now consider a different compound.
Challenge: Please look at this compound and report its IC50: COc1cc2ncnc(Nc3ccc(Sc4nccn4C)c(Cl)c3)c2cc1OC
Response given: 200

====

Listed here: items and their measured IC50.
Molecular target: EGF receptor tyrosine kinase (Homo sapiens, UniProt P00533)
Construct: Receptor tyrosine kinase was obtained in partially purified form from A-431 cells; endogenous in cells
Assay: Test (a): in vitro inhibition of the enzyme EGF receptor tyrosine kinase (partially purified from A-431 cells)
Conditions: EGF receptor tyrosine kinase from A-431 cells
Just the number in nM, nothing appended.

Worked cases, IC50 given:
Challenge: Please look at this compound and report its IC50: COc1cc2ncnc(Nc3ccc(Sc4ccccc4)c(Cl)c3)c2cc1OC
Response given: 80

Challenge: Please look at this compound and report its IC50: COc1cc2ncnc(Nc3ccc(Cc4ccccc4)c(Cl)c3)c2cc1OC.I [hydroiodide salt]
Response given: 100

Now consider a different compound.
Challenge: Please look at this compound and report its IC50: COc1cc2ncnc(Nc3ccc(OCc4ccccn4)c(C)c3)c2cc1OCCCN(C)C
Response given: 66

====

Listed here: items and their measured ED50.
Test system: liver hepatocyte growth caused by the administration of the growth factor TGFα
Assay: Test (c): in vivo inhibition of TGFα-stimulated liver hepatocyte growth in male rats (BrdU uptake)
Settings: Rattus norvegicus, usually oral, TGFα 400 μg/kg subcutaneously, approximate ED50, BrdU uptake

Challenge: Please look at this molecule and report its ED50: COc1cc2ncnc(Nc3ccc(Sc4nccn4C)c(Cl)c3)c2cc1OC
Response given: < 12.5 mg/kg

Challenge: Please look at this molecule and report its ED50: COc1cc2ncnc(Nc3ccc(C(=O)c4ccccc4)c(Cl)c3)c2cc1OC.Cl
Response given: < 5 mg/kg

Challenge: Please look at this molecule and report its ED50: COc1cc2ncnc(Nc3ccc(Cc4ccccc4)c(Cl)c3)c2cc1OC.I
Response given: < 12.5 mg/kg
